- Target under test: T1, human LILRB5 (human, UniProt O75023 24-590)
- T1 construct: whole, on cells; also called hLILRB5
- T1 sequence (O75023 24-590): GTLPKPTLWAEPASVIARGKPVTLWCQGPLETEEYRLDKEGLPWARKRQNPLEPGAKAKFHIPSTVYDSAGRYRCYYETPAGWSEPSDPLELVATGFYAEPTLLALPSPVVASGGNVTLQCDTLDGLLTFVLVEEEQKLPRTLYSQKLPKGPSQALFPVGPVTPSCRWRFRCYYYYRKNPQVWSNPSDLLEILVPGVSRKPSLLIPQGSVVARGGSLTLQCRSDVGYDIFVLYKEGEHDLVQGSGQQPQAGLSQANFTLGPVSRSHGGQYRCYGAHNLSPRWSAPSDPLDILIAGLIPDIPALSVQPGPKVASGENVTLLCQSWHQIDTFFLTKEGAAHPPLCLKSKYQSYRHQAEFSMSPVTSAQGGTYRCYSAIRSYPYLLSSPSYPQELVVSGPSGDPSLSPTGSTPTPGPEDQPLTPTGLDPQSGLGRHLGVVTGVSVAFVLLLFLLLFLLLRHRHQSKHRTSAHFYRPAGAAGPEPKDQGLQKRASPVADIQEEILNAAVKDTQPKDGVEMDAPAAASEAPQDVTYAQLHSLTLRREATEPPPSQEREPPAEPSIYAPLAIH
- Protocol summary: FACS, 293F-hLILRB5 cells
Measurement label: MFI (MFI)
One number for each entry, in MFI.

* 7-B4-C1-C9 (antibody, V domains shown, mouse monoclonal hybridoma antibody) VH: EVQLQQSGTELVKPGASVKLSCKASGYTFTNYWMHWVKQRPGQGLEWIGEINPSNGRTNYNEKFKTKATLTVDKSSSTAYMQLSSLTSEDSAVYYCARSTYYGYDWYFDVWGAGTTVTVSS VL: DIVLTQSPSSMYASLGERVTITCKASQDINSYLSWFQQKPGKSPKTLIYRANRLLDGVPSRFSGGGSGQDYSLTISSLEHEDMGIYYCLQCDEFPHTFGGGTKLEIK | 17.8

Sure, the documented MFI for 27-G5-E9-B8 (antibody, V domains shown, mouse monoclonal hybridoma antibody) VH: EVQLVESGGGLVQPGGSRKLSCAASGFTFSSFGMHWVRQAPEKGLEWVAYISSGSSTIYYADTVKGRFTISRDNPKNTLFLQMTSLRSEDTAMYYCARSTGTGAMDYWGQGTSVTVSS VL: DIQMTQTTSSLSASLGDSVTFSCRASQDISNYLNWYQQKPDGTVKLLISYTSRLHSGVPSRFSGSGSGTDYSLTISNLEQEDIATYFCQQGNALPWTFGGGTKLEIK is 18.7
